B1: TMEM106C (parent)
chain: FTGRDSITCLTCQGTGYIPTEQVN

- Variants of: B1
- assayMethodText: protein stability index of a GFP-peptide fusion (GPS, HEK-293T) (PSI 1-6); higher = more stable;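 note: lentivirally expressed fusions sorted by FACS into six bins by GFP to DsRed ratio, PSI derived from sequencing read proportions per bin multiplied by bin number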
- measurementSetup: c terminus: a fixed tail appended
protein stability index listing for selected variants.
// return just the number, without any unit appended

Task: I would be grateful if you could share the reported protein stability index for FTGRDSITQLTCQGTGYIPTEQVN [C9Q] .
Output: 1.68

Task: Follow-up item: FTGRISITCLTCQGTGYIPTEQVN [D5I]
Output: 2.65

Task: Now the variant FTGRNSITCLTCQGTGYIPTEQVN [D5N]
Output: 1.56

Task: Would you kindly repeat that for FTGRDSITCLTCQGTGYIPTEMVN [Q22M] ?
Output: 2.42

Task: Repeat for the following variant: FRGRDSITCLTCQGTGYIPTEQVN [T2R]
Output: 4.04

Task: One more variant: FWGRDSITCLTCQGTGYIPTEQVN [T2W]
Output: 2.31

Task: Now consider FTGRDSLTCLTCQGTGYIPTEQVN [I7L] .
Output: 2.07

Task: Here is the next variant: FTGRDSITCLTCQGTGLIPTEQVN [Y17L]
Output: 1.84

Task: Now try FTGRDSITCLTCQGTGYIITEQVN [P19I] .
Output: 1.84

Task: Could you do the same for FTGRDIITCLTCQGTGYIPTEQVN [S6I] , please?
Output: 2.92
